This collection of values is drawn from the MegaScale stability set (Tsuboyama et al. 2023).

Each record here notes measured folding stability dG.
B1: r16_88_TrROS_Hall (parent)
chain: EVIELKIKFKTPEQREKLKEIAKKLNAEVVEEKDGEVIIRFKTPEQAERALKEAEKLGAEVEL

- Variants of: B1
- Assay protocol: folding stability dG (cDNA display proteolysis); higher = more stable
- Condition summary: PBS, room temperature
Quantity name: folding stability dG (kcal/mol)

sequence_entry="EVIELKIKFQTPEQREKLKEIAKKLNAEVVEEKDGEVIIRFKTPEQAERALKEAEKLGAEVEL [K10Q]" measurement=4.34
sequence_entry="EVIELKSKFKTPEQREKLKEIAKKLNAEVVEEKDGEVIIRFKTPEQAERALKEAEKLGAEVEL [I7S]" measurement=3.87
sequence_entry="EVIELKIKFKTPEQREKLKEIAKKLNAELVEEKDGEVIIRFKTPEQAERALKEAEKLGAEVEL [V29L]" measurement=4.2
sequence_entry="EVIELKIHFKTPEQREKLKEIAKKLNAEVVEEKDGEVIIRFKTPEQAERALKEAEKLGAEVEL [K8H]" measurement=4.25
sequence_entry="EVIELKIKFKTPEQREKLKEIAKKLNAEVVEEKDGEVIIRFKTPEQAERALKESEKLGAEVEL [A54S]" measurement=4.45
sequence_entry="EVIELKIKFKTPEQRECLKEIAKKLNAEVVEEKDGEVIIRFKTPEQAERALKEAEKLGAEVEL [K17C]" measurement=4.36
sequence_entry="EVIELKIKFKTPEQREKLKEIAKKLNAEVVEEKDGPVIIRFKTPEQAERALKEAEKLGAEVEL [E36P]" measurement=4.07
sequence_entry="EVIELKIKFKTPEQREKLKEIAKKLNAEVVEEKDGEVIIRFKTPEQAGRALKEAEKLGAEVEL [E48G]" measurement=4.28
sequence_entry="EVIELKIKFKTPEQREKLKEIAKKLNAEVVEEKDGEVIIRVKTPEQAERALKEAEKLGAEVEL [F41V]" measurement=4.09
sequence_entry="EVIELKIKFKTPEQREKLKMIAKKLNAEVVEEKDGEVIIRFKTPEQAERALKEAEKLGAEVEL [E20M]" measurement=4.79
sequence_entry="EVIELKIKFKTPEQREKLKEIAKKLNDEVVEEKDGEVIIRFKTPEQAERALKEAEKLGAEVEL [A27D]" measurement=3.12
sequence_entry="EVIELKIKFKTPEQREKLKEIAKKLNAEVVEEKDGEVIIRFKTPEQAETALKEAEKLGAEVEL [R49T]" measurement=4.04
sequence_entry="EVIELKIKFKTPEQREKLKEIAKKLNAEVVEEKDGEVIIRFHTPEQAERALKEAEKLGAEVEL [K42H]" measurement=4.1
sequence_entry="EVIELKIKFKTPEQREKLKEIAKTLNAEVVEEKDGEVIIRFKTPEQAERALKEAEKLGAEVEL [K24T]" measurement=4.48
sequence_entry="EVIELKIKFKTPEQREKLKEIAKKLNAEVVEEKDGEVIIRRKTPEQAERALKEAEKLGAEVEL [F41R]" measurement=1.04
sequence_entry="EVIEQKIKFKTPEQREKLKEIAKKLNAEVVEEKDGEVIIRFKTPEQAERALKEAEKLGAEVEL [L5Q]" measurement=4.28
sequence_entry="EVIELKIKFKTPEQRQKLKEIAKKLNAEVVEEKDGEVIIRFKTPEQAERALKEAEKLGAEVEL [E16Q]" measurement=4.43
sequence_entry="EVIELKFKFKTPEQREKLKEIAKKLNAEVVEEKDGEVIIRFKTPEQAERALKEAEKLGAEVEL [I7F]" measurement=4.53
sequence_entry="EVIELKIKFKTPEQREKLKVIAKKLNAEVVEEKDGEVIIRFKTPEQAERALKEAEKLGAEVEL [E20V]" measurement=4.47
sequence_entry="EVIELKIKFKTPEQREKLKEIAKKLNAEVVEEKDGEVIIRFKTPEQAERALKEAEKLYAEVEL [G58Y]" measurement=4.25
sequence_entry="EVIELKIKFKTPEQREKLKEIAKKLNAEVVEEKDGEVVIRFKTPEQAERALKEAEKLGAEVEL [I38V]" measurement=4.44
sequence_entry="EVIELKIKFKTPEQREKLKEIAKKLNAEVVEEKDGEVIIRFKTPEQAERALKEAEKLGAMVEL [E60M]" measurement=4.11
sequence_entry="EVIELKIKFKTPEQREKLKEIAKKLNAEVVEEKDGEVIIRFKTYEQAERALKEAEKLGAEVEL [P44Y]" measurement=4.39
sequence_entry="EVIELKIKFKTPEQREKLKEIAKKLNAEVVEEKDGEVEIRFKTPEQAERALKEAEKLGAEVEL [I38E]" measurement=3.67
sequence_entry="EVIELKIKFKTPEQREKLKEIAKKLNAEVVEEKDGEVIIRFKTPEQAERALKEAEKLGWEVEL [A59W]" measurement=4.21
sequence_entry="EVIELKIKFKPPEQREKLKEIAKKLNAEVVEEKDGEVIIRFKTPEQAERALKEAEKLGAEVEL [T11P]" measurement=3.48
sequence_entry="EVIELKIKFKTPEQREKLKEIAKKLNAEVVEEKDGEVIIRFKTPEQAERALKEAEKLGAEVQL [E62Q]" measurement=4.3
sequence_entry="EVIELKIKFHTPEQREKLKEIAKKLNAEVVEEKDGEVIIRFKTPEQAERALKEAEKLGAEVEL [K10H]" measurement=4.28
sequence_entry="EVIELLIKFKTPEQREKLKEIAKKLNAEVVEEKDGEVIIRFKTPEQAERALKEAEKLGAEVEL [K6L]" measurement=4.32
sequence_entry="EVIELKIKFKTPEQREKLKEIAKKLNAEVVEKKDGEVIIRFKTPEQAERALKEAEKLGAEVEL [E32K]" measurement=4.45
sequence_entry="EVIELKIKFKTPEQREKLKLIAKKLNAEVVEEKDGEVIIRFKTPEQAERALKEAEKLGAEVEL [E20L]" measurement=4.87
sequence_entry="EVIELKIKFKTPEQREKLKEIAKILNAEVVEEKDGEVIIRFKTPEQAERALKEAEKLGAEVEL [K24I]" measurement=4.49
sequence_entry="EVIELKIKFKTPEQREKLKEIAKKLNAEVVEEKDGEVIIRFKTPVQAERALKEAEKLGAEVEL [E45V]" measurement=4.24
sequence_entry="EVIELKIKFKTPEQREKLKEIAKKLNAEVVEEKDGEVIIRFKTPEQAERLLKEAEKLGAEVEL [A50L]" measurement=4.28
sequence_entry="EVIELKIKFKTPEQREKLKEIAKKLNAEVVEEKDGEPIIRFKTPEQAERALKEAEKLGAEVEL [V37P]" measurement=2.49
sequence_entry="EVIELKIKFKTPEQREKLKKIAKKLNAEVVEEKDGEVIIRFKTPEQAERALKEAEKLGAEVEL [E20K]" measurement=4.39
sequence_entry="EVIELKAKFKTPEQREKLKEIAKKLNAEVVEEKDGEVIIRFKTPEQAERALKEAEKLGAEVEL [I7A]" measurement=4.69
sequence_entry="AVIELKIKFKTPEQREKLKEIAKKLNAEVVEEKDGEVIIRFKTPEQAERALKEAEKLGAEVEL [E1A]" measurement=4.45
sequence_entry="EVIELKIKFKTPQQREKLKEIAKKLNAEVVEEKDGEVIIRFKTPEQAERALKEAEKLGAEVEL [E13Q]" measurement=4.57
sequence_entry="EVIELKIKFKTPEQREKLKEIAKKLNAEVVEEKDGEVIIRHKTPEQAERALKEAEKLGAEVEL [F41H]" measurement=3.13
sequence_entry="EVIELKIKFKTPEQREKLKEIAKKLNAEVVEEKDGEVIIRFKTPEQAERPLKEAEKLGAEVEL [A50P]" measurement=2.96
sequence_entry="EVIELKIKFKTPEQREKLKEIAKKLNAEVVEEKDGEVIIRFITPEQAERALKEAEKLGAEVEL [K42I]" measurement=4.37
sequence_entry="EVIELKIKFKTPEQREKLKEIAKKLNAEVVEEKDGEVIIRFKTPEQAERALKEEEKLGAEVEL [A54E]" measurement=3.03
sequence_entry="EVIELKIKFKTPEQREKLKEIAKKLNAEVVEEKDGEVIIRFKTPEEAERALKEAEKLGAEVEL [Q46E]" measurement=4.18
sequence_entry="EVIGLKIKFKTPEQREKLKEIAKKLNAEVVEEKDGEVIIRFKTPEQAERALKEAEKLGAEVEL [E4G]" measurement=4.3
sequence_entry="EVIELKIKFKTIEQREKLKEIAKKLNAEVVEEKDGEVIIRFKTPEQAERALKEAEKLGAEVEL [P12I]" measurement=4.47
